Form field: apparent Kd (one value per entry).
# Tested on: MS2 coat protein
# ASSAY SUMMARY: apparent Kd, MS2 coat protein; higher = weaker binding; RNA-MaP array
# COND: ligand present: tryptophan; designed as: ON switch for tryptophan

>  <ORDERED RESIDUES>
CGGGACAUGAGGAUCACCCAUGUACGAUCCCGAGGACCGGUACGGCCGCCACUCGCUAGCGUUGAGUCGCGACUUUCAUAACUAA

>  <READING UNIT>
nM

>  <apparent Kd>
43.3

$$$$
>  <ORDERED RESIDUES>
ACGAAACAAGCGGCCGCCACUUCGUGGUGCUAAGGCUUGAUACUACAUGAGGAUCACCCAUGUCGAAGGACCGGGCUUGCGACUG

>  <READING UNIT>
nM

>  <apparent Kd>
51.9

$$$$
>  <ORDERED RESIDUES>
GAUACGCAGUCGGCCGCCACUUGCUAAGGUGACAAACCAAAACAUGAGGAUCACCCAUGUCUGAUAAGGACCGGGACCACCAUGG

>  <READING UNIT>
nM

>  <apparent Kd>
81.1

$$$$
>  <ORDERED RESIDUES>
UACGUGGAUGCGGCCGCCACUGCUCUGAGCGAGUUGCUCUAUGGACAUGAGGAUCACCCAUGUCACAGGACCGGGCACGCUUUAA

>  <READING UNIT>
nM

>  <apparent Kd>
9.67

$$$$

* * *

Form field: apparent Kd (one value per entry).
# System: MS2 coat protein
# ASSAY SUMMARY: apparent Kd, MS2 coat protein; higher = weaker binding; RNA-MaP array; FMN 200 µM where present
# COND: ligand present: flavin mononucleotide; designed as: OFF switch for flavin mononucleotide

>  <ORDERED RESIDUES>
UGUCGGAGCAGAGGAUAUUACAUGAGGAUCACCCAUGUAUGAACCAUUAGCUGGAAACAGCAAUGUAAGAAGGCUGCUCCGACA

>  <MEASURED ON>
MS2 coat protein

>  <apparent Kd / µM>
0.0104

$$$$
>  <ORDERED RESIDUES>
CAAAAGGAAGGAUAUGCAUCGGGAGGUGCUCAGCAUCAAAUACAUGAGGAUCACCCAUGUAGAAGGUCUGAAAA

>  <MEASURED ON>
MS2 coat protein

>  <apparent Kd / µM>
0.0857

$$$$
>  <ORDERED RESIDUES>
CGUUGGUCAGGAUAUGGUGGGCUGGUCGCGCGGCCGGGUGGCUAGAAGGGACAUGAGGAUCACCCAUGUACGGC

>  <MEASURED ON>
MS2 coat protein

>  <apparent Kd / µM>
0.0405

$$$$
>  <ORDERED RESIDUES>
CUCUCUGAUCGAGGAUAUCGAGCUUCCGCCCUUCGAGAAGGCGACAUGAGGAUCACCCAUGUAAGGAGGACACUCACUCACACG

>  <MEASURED ON>
MS2 coat protein

>  <apparent Kd / µM>
0.0225

$$$$
>  <ORDERED RESIDUES>
GAGGAACAUGAGGAUCACCCAUGUGAGGAUAUGCAUAGUGAGGUAGUAGACGUUGAAUGCAGAAGGUACACUGA

>  <MEASURED ON>
MS2 coat protein

>  <apparent Kd / µM>
0.0343

$$$$
>  <ORDERED RESIDUES>
AUUAAGAAUGAAGGAUAUCUAAGCGUAAACAAAAGAGAAGGUCAAUAGUACAUGAGGAUCACCCAUGUUAGAAUAGAUGGGAUA

>  <MEASURED ON>
MS2 coat protein

>  <apparent Kd / µM>
0.103

$$$$
>  <ORDERED RESIDUES>
AAUAACAGAGGAUAUACUGUUUUAUGUGUUUAUUAUUUUAAACAUGAGGAUCACCCAUGUAGAAGGCUGAAUAA

>  <MEASURED ON>
MS2 coat protein

>  <apparent Kd / µM>
0.0428

$$$$

The reported measurements were obtained from the EternaBench riboswitch data.
